- Target Or Test System: T1, cMetECDHis (human, UniProt P08581 25-932, limits assumed, biotinylated in the cross-block ELISA of Example 17)
- T1 construct: Expressed in HEK-293F cells; also called soluble cMetECDHis; biotinylated cMetECDHis
- Assay Summary: cross-block ELISA; competitor 068
Measurement Kind: residual binding, % of no competitor (%)
Report only the number, with the unit % understood.

// worked examples, residual binding, % of no competitor included
- Binder: "IgG1-1016-069 (antibody, V domains shown, also called clone 069; TH1016-069) VH: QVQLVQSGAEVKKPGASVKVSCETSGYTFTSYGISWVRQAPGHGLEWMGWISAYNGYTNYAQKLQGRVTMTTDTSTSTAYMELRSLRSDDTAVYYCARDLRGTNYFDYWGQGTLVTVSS VL: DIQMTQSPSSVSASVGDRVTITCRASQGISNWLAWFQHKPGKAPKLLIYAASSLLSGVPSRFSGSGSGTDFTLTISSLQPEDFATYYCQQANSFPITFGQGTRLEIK"
  residual binding, % of no competitor / %: 10.1
- Binder: "anti-c-Met HuMab 035 (IgG1) (antibody, V domains shown, also called P1016-035; TH1016-035-D09) VH: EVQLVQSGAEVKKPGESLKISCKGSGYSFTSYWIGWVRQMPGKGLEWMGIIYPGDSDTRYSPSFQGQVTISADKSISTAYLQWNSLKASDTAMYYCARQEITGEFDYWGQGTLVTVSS VL: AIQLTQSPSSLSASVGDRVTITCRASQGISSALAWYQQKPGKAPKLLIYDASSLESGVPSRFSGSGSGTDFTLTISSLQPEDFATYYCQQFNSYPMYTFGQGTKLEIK"
  residual binding, % of no competitor / %: 175

Turning now to a further record.
// query Give its residual binding, % of no competitor value. Item: IgG1-1016-022 (antibody, V domains shown, also called TH1016-022; PC1016-022) VH: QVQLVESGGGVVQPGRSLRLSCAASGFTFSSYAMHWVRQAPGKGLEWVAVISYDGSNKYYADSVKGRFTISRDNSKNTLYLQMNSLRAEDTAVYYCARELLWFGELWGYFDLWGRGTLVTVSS VL: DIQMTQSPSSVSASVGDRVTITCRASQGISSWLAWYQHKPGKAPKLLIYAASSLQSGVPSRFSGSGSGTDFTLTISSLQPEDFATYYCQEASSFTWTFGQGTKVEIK
// result 104

Data origin, for the record: patent US20150329642A1
